Measured %Inh, listed per entry.
# Tested on: MYO3A
# CONDITION SET: concentration: 1 μM, replicates: in singlicate; n = 1;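 note: KINOMEscan kinase panel screen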

{"SMILES CODE": "O=C(O)COc1ncnc2cc(-c3ccc4[nH]ncc4c3)sc12", "STUDY TARGET": "MYO3A", "OUTPUT UNIT": "%", "%Inh": 0}
{"SMILES CODE": "Cc1cc(-c2ccc3c(c2)CC[C@@H](N[C@@H](C)c2ccccc2)C3)cnc1N.Cl", "STUDY TARGET": "MYO3A", "OUTPUT UNIT": "%", "%Inh": 0}
{"SMILES CODE": "CS(=O)(=O)c1ccc(-c2c(-c3ncn[nH]3)sc(N3CCOCC3)c2C#N)cc1", "STUDY TARGET": "MYO3A", "OUTPUT UNIT": "%", "%Inh": 4}
{"SMILES CODE": "Cc1csc(-c2nc(Nc3ccncc3)c3ccccc3n2)n1", "STUDY TARGET": "MYO3A", "OUTPUT UNIT": "%", "%Inh": 2}
{"SMILES CODE": "O=C(Nc1n[nH]c2cc(-c3cccc(F)c3F)ccc12)C1CC1", "STUDY TARGET": "MYO3A", "OUTPUT UNIT": "%", "%Inh": 2}
{"SMILES CODE": "CCn1c(-c2ccccn2)nc2cnccc21", "STUDY TARGET": "MYO3A", "OUTPUT UNIT": "%", "%Inh": 18}
{"SMILES CODE": "Cn1cncc1-c1ccc2ncnc(Nc3ccc(OCc4ccccc4)cc3)c2c1", "STUDY TARGET": "MYO3A", "OUTPUT UNIT": "%", "%Inh": 0}
{"SMILES CODE": "Cc1ccc(NC(=O)Nc2cccc(Cl)c2)cc1-c1ccc(C(=O)Nc2ccncc2)cc1", "STUDY TARGET": "MYO3A", "OUTPUT UNIT": "%", "%Inh": 100}
{"SMILES CODE": "Cl.NC(=O)c1cccc(Nc2nccc(Nc3ccc(Oc4cccc(Cl)c4)c(Cl)c3)n2)c1", "STUDY TARGET": "MYO3A", "OUTPUT UNIT": "%", "%Inh": 6}

###

Known %Inh of a selection of compounds
# Test system: PIM2
# CONDITION SET: concentration: 1 μM, replicates: in singlicate; n = 1

{"SMILES CODE": "Cc1c(O)cccc1Nc1ccnc2ccc(C(F)(F)F)cc12.Cl", "%Inh / %": 0}
{"SMILES CODE": "COC(=O)c1c(-c2ccccc2)c2cc(C(=O)O)ccc2c(=O)n1Cc1ccccc1", "%Inh / %": 0}
{"SMILES CODE": "Cc1cccc(-c2nc(-c3ccc(S(C)(=O)=O)cc3)sc2-c2ccnc(NCCc3ccccc3)c2)c1", "%Inh / %": 9}
{"SMILES CODE": "COc1ccccc1-c1ccc2c(NC(=O)C3CC3)n[nH]c2n1", "%Inh / %": 0}
{"SMILES CODE": "Cl.O=C(Nc1cccc(-c2nn3ncccc3c2-c2ccnc(Nc3cccnc3)n2)c1)c1c(F)cccc1F", "%Inh / %": 0}
{"SMILES CODE": "O=S(=O)(c1ccc(-c2ccnc3[nH]ccc23)cc1)N1CCCC1", "%Inh / %": 0}
{"SMILES CODE": "Cl.Oc1ccc(-c2nc(-c3ccccc3)[nH]c2-c2ccncc2)cc1", "%Inh / %": 0}
{"SMILES CODE": "Clc1cc(Cl)cc(Nc2ccnc(Nc3cc(Cl)cc(Cl)c3)n2)c1", "%Inh / %": 0}
{"SMILES CODE": "CC(C)(C)c1ccc(C(=O)Nc2cn3cc(-c4cccnc4)ccc3n2)cc1", "%Inh / %": 12}

The origin of these recorded values is paper PMC5540273.
